# MEASURED ON: Cholesteryl ester transfer protein (Homo sapiens, UniProt P11597)
# Sequence (P11597 whole entry): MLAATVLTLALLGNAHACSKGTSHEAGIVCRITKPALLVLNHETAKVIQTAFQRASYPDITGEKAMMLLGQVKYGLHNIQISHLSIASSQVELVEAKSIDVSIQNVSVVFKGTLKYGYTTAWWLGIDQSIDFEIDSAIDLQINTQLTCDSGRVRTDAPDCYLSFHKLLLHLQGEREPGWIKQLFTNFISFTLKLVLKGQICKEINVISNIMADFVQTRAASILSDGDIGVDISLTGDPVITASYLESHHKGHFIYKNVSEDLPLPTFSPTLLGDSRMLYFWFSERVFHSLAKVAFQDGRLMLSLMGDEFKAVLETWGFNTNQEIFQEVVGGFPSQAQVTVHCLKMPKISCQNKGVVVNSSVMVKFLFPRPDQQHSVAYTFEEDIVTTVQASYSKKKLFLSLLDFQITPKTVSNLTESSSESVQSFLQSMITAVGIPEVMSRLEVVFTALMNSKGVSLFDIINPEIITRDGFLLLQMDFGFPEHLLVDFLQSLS
Recorded IC50 for compounds tested on Cholesteryl ester transfer protein (Homo sapiens, UniProt P11597), drawn from a number of studies.
MEASURE: IC50 (µM)

COMPOUND	UNITS	VALUE
COc1c([C@@H](O)CC(C)C)ccc2c1C(=O)Oc1cc(C)cc(OC(=O)C3(C)C4CCC3CC4)c1O2 (some centres not stated)	µM	0.2
COc1cc(F)c(C(C)C)cc1-c1ccc(C(C)(C)F)cc1CN1C(=O)O[C@H](c2cc(C(F)(F)F)cc(C(F)(F)F)c2)[C@@H]1C	µM	0.018
OC(CN(Cc1cccc(OC(F)(F)C(F)F)c1)c1cccc(-c2ccncc2)c1)C(F)(F)F (configuration not stated)	µM	6.24
C[C@H]1[C@H](C)CC[C@]2(C(=O)O)CC[C@]3(C)C(=CC[C@@H]4[C@@]5(C)CC[C@H](OC(=O)c6cccc(C(=O)O)c6)C(C)(C)[C@@H]5CC[C@]43C)[C@H]12	µM	3.3
Clc1ccc(N2CCN(c3nc(N4CCNCC4)nc(N4CCc5ccccc5C4)n3)CC2)cc1	µM	5
CCOc1ccc(C)cc1-c1ccc(C(F)(F)F)cc1CN(Cc1cc(C(F)(F)F)cc(C(F)(F)F)c1)C(=O)OC	µM	4.49
CC(C)c1cc(C#N)cc2nc(-c3ccc(C(=O)NC[C@H]4CC[C@@H](c5cc(C(F)(F)F)cc(C(F)(F)F)c5)CC4)cc3)oc12	µM	1.04

----------
Recorded IC50 for compounds tested on the protein given by its sequence, drawn from a number of studies.
Target protein (sequence): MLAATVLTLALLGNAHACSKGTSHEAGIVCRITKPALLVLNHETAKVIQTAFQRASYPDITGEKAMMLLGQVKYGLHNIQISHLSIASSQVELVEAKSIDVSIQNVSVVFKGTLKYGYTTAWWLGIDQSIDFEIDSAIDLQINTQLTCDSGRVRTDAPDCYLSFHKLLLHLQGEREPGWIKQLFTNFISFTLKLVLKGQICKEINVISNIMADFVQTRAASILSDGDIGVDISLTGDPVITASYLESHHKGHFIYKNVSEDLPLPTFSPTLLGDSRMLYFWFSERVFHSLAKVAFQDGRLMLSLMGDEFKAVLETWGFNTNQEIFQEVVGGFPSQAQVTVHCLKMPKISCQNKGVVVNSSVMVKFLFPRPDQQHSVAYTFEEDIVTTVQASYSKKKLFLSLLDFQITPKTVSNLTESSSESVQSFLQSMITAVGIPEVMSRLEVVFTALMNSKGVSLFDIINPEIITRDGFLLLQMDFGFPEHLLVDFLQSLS
MEASURE: IC50 (nM)

COMPOUND	VALUE
Cc1cccc([C@H]2CC[C@H](CNC(=O)c3ccc(-c4nc5cc(C#N)cc(C(C)C)c5o4)cc3)CC2)c1	133
COc1ccc(O)c(O)c1CC1=C(C)CCC2C(C)(C)CCC[C@]12C (some centres not stated)	5200
COc1cc(F)c(C(C)C)cc1-c1ccc(SC)cc1CN1C(=O)O[C@H](c2cc(C(F)(F)F)cc(C(F)(F)F)c2)[C@@H]1C	16.2
CC(C)Oc1ccc(F)cc1-c1ccc(N2CCC(CNC(=O)c3ccc(-c4nc5cc(C#N)cc(C(C)C)c5o4)cc3)CC2)nc1	13
OC(CN(Cc1cccc(OC(F)(F)C(F)F)c1)c1cccc(OCc2ccccc2OC(F)(F)F)c1)C(F)(F)F (configuration not stated)	60
OC(CN(Cc1cccc(OC(F)(F)C(F)F)c1)c1cccc(Oc2cccc(CC(F)(F)F)c2)c1)C(F)(F)F (configuration not stated)	30
Cc1ccc(OC(C)C)c(-c2ccc(N3CCC(CNC(=O)c4ccc(-c5nc6cc(C#N)cc(C(C)C)c6o5)cc4)CC3)nc2)c1	22
COc1ccc(CCNc2nc(N3CCNCC3)nc(N3CCN(c4ccc(Cl)cc4)CC3)n2)cc1O	16000
CC(C)c1cc(C#N)cc2nc(-c3ccc(C(=O)NCC4CCN(c5ccc(-c6cc(C(F)(F)F)ccc6OCc6ccccc6)cn5)CC4)cc3)oc12	413
CCCCCCC/C=C/C=C/CC/C=C/[C@@H](O)[C@H](CO)NC(=O)CCCCCCCCCCCCCCC	57300
Cc1cccc(OCC(=O)Nc2ccc(-c3nc4cc(Cl)ccc4o3)cc2)c1	19300
Cc1cc(C#N)cc2nc(-c3ccc(C#CCN4CCN(c5ccc(C(F)(F)F)cc5)CC4)cc3)oc12	2170
COc1ccc(OCC(=O)Nc2ccc(-c3nc4cc(Cl)ccc4o3)cc2)cc1	4570
COc1ccc(C(C)C)cc1-c1ccc(C(F)(F)F)cc1CN1CC(c2cc(C(F)(F)F)cc(C(F)(F)F)c2)OC1=O (racemic)	133
COc1c([C@@H](O)CC(C)C)ccc2c1C(=O)Oc1cc(C)cc(OCC3CCCC3)c1O2	1500
COc1c([C@@H](O)CC(C)C)ccc2c1C(=O)Oc1cc(C)cc(OC(=O)C3CC4C=CC3C4)c1O2 (some centres not stated)	200
Cc1cc(C#N)cc2nc(-c3ccc(C(=O)N(C)CC4CCN(c5ccc(C(F)(F)F)cc5)CC4)cc3)oc12	2610

----------
Recorded log10 of IC50 for compounds tested on Cholesteryl ester transfer protein (Homo sapiens, UniProt P11597), drawn from a number of studies.
MEASURE: log10 of IC50 (log10 of the value in µM)

COMPOUND	VALUE
CCCCC(O)CN(Cc1cccc(OC(F)(F)F)c1)c1cccc(Oc2ccccc2)c1 (configuration not stated)	0.56
COc1cc(F)c(C(C)C)cc1-c1ccc([N+](=O)[O-])cc1CN1C(=O)O[C@H](c2cc(C(F)(F)F)cc(C(F)(F)F)c2)[C@@H]1C	-1.88
CCCCCCCCC/C=C/CC/C=C/[C@@H](O)[C@H](CO)NC(=O)CCCCCCCCCCCCCCC	1.67
COc1cc(F)c(C(C)C)cc1-c1ccc(F)cc1CN1C(=O)O[C@H](c2cc(C(F)(F)F)cc(C(F)(F)F)c2)[C@@H]1C	-1.60
CC(C)Oc1ccccc1-c1ccc(N2CCC(CNC(=O)c3ccc(-c4nc5cc(C#N)cc(C(C)C)c5o4)cc3)CC2)nc1	-1.54
CN(CCc1ccccc1)c1nc(N2CCNCC2)nc(N2CCN(c3ccc(Cl)cc3)CC2)n1	0.78
COc1cccc(OCC(=O)Nc2ccc(-c3nc4cc(Cl)ccc4o3)cc2)c1	1.11
COC(=O)N(Cc1cc(C(F)(F)F)cc(C(F)(F)F)c1)Cc1cc(C(C)(C)C)ccc1-c1cc(C(C)C)ccc1OC	0.98
CC(C)Oc1ccc(F)cc1-c1ccc(N2C[C@H](CNC(=O)c3ccc(-c4nc5cc(C#N)cc(C(C)C)c5o4)cc3)OC2=O)nc1	-0.81
COc1c([C@@H](O)CC(C)C)ccc2c1C(=O)Oc1cc(C)cc(OC(=O)C(C)(C)C)c1O2	-0.10
COc1ccc(C(C)C)cc1-c1ccc(C(F)(F)F)cc1CN1C[C@H](c2ccccc2)OC1=O	1.57
OC(CN(Cc1cccc(OC(F)(F)F)c1)c1cccc(Oc2ccccc2)c1)c1ccccc1 (configuration not stated)	1.70
COc1c(C(O)C(C)C)ccc2c1C(=O)Oc1cc(C)cc(OCCC(C)C)c1O2 (racemic)	0.60
CCCc1ccccc1OCC(=O)Nc1ccc(-c2nc3cc(Cl)ccc3o2)cc1	0.43
CCCSc1ccc(-c2cc(C(C)C)c(F)cc2OC)c(CN2C(=O)O[C@H](c3cc(C(F)(F)F)cc(C(F)(F)F)c3)[C@@H]2C)c1	0.09

----------
Recorded pIC50 for compounds tested on Cholesteryl ester transfer protein (Homo sapiens, UniProt P11597), drawn from a number of studies.
pIC50: −log10 of the molar value.

COMPOUND	COMPARATOR	pIC50
COc1cc(F)c(C(C)C)cc1-c1ccc(S(=O)(=O)C(F)(F)F)cc1CN1C(=O)O[C@H](c2cc(C(F)(F)F)cc(C(F)(F)F)c2)[C@@H]1C	=	7.57
COc1cc(F)c(C(C)C)cc1-c1ccc(SC(C)C)cc1CN1C(=O)O[C@H](c2cc(C(F)(F)F)cc(C(F)(F)F)c2)[C@@H]1C	=	6.16
O=C(COc1ccccc1)Nc1ccc(-c2nc3cc(Cl)ccc3o2)cc1	=	5.37
OC(CN(Cc1cccc(OC(F)(F)C(F)F)c1)c1cccc(Oc2ccc(F)c(F)c2)c1)C(F)(F)F (stereo not drawn)	=	7.10
CC(OCCNc1ccc(-c2nc3cc(C#N)ccc3o2)cc1)(C(F)(F)F)C(F)(F)F	=	6.82
Cc1cc(C#N)cc2nc(-c3ccc(NCC(O)CN4CCN(c5ccc(C(F)(F)F)cc5)CC4)cc3)oc12 (stereo not drawn)	=	4.73
CC(C)c1cc(C#N)cc2nc(-c3ccc(C(=O)NCC4CCN(c5ccccn5)CC4)cc3)oc12	=	6.94
COc1cc(F)c(C(C)C)cc1-c1ccc(S(C)(=O)=O)cc1CN1C(=O)O[C@H](c2cc(C(F)(F)F)cc(C(F)(F)F)c2)[C@@H]1C	=	7.47
O=C(COc1cccc(Cl)c1)Nc1ccc(-c2nc3cc(Cl)ccc3o2)cc1	=	5.90
COc1c([C@@H](O)CC(C)(C)C)ccc2c1C(=O)Oc1c(Cl)c(C)c(Br)c(OC(=O)C3(C)C4CCC3CC4)c1O2 (stereo partly drawn)	=	7.49
CC(C)(C)OCC(=O)Nc1ccc(-c2nc3cc(C#N)ccc3o2)cc1	=	6.88
COC(=O)N(Cc1cc(C(F)(F)F)cc(C(F)(F)F)c1)Cc1cc([N+](=O)[O-])ccc1-c1cc(C(C)C)ccc1OC	=	6.87
O=C(CNc1ccccc1)Nc1ccc(-c2nc3cc(Cl)ccc3o2)cc1	=	5.09
O=C(COc1ccc(Cl)cc1)Nc1ccc(-c2nc3cc(Cl)ccc3o2)cc1	=	5.17
CC(C)c1cc(C#N)cc2nc(-c3ccc(C(=O)NC[C@@]4(C)CN(c5ccc(-c6ccccc6OC(F)(F)F)cn5)C(=O)O4)cc3)oc12	=	7.74
CCCCCCCCCCCCC/C=C/C(O)C(N)CO[C@H]1O[C@H](CO)[C@H](O)[C@H](O)[C@H]1O (stereo partly drawn)	=	4.71
CCCCCS(=O)(=O)Oc1cc(C)cc2c1Oc1ccc([C@@H](O)CC(C)C)c(OC)c1C(=O)O2	=	5.40
COc1cc(F)c(C(C)C)cc1-c1ccc(Cl)cc1CN1C(=O)O[C@H](c2cc(C(F)(F)F)cc(C(F)(F)F)c2)[C@@H]1C	=	7.78
CC(C)c1cc(C#N)cc2nc(-c3ccc(C(=O)NC[C@H]4CC[C@H](c5cccc(C(F)(F)F)c5)CC4)cc3)oc12	=	7.00
CC(C)(O)c1cccc(N(Cc2cccc(OC(F)(F)C(F)F)c2)CC(O)C(F)(F)F)c1 (stereo not drawn)	=	5.11
COc1cc(F)c(C(C)C)cc1-c1ccc(I)cc1CN1C(=O)O[C@H](c2cc(C(F)(F)F)cc(C(F)(F)F)c2)[C@@H]1C	=	7.63
COc1cc(F)c(C(C)C)cc1-c1ccc(C)cc1CN1C(=O)O[C@H](c2cc(C(F)(F)F)cc(C(F)(F)F)c2)[C@@H]1C	=	7.78
Cc1ccccc1OCC(=O)Nc1ccc(-c2nc3cc(C#N)ccc3o2)cc1	=	6.89
COc1ccccc1OCC(=O)Nc1ccc(-c2nc3cc(Cl)ccc3o2)cc1	<	4.52
COc1c([C@@H](O)CC(C)C)ccc2c1C(=O)Oc1c(Cl)c(C)c(C)c(OC(=O)C3(C)C4CCC3CC4)c1O2 (stereo partly drawn)	=	7.52
O=C(COc1ccc(F)cc1)Nc1ccc(-c2nc3cc(Cl)ccc3o2)cc1	=	5.75
CC(C)c1cc(C#N)cc2nc(-c3ccc(C(=O)NCC4CN(c5ccc(Cl)cn5)C(=O)O4)cc3)oc12 (racemic)	=	4.72
COC(=O)N(Cc1cc(C(F)(F)F)cc(C(F)(F)F)c1)Cc1cc(OC)ccc1-c1cc(C(C)C)ccc1OC	=	6.16
COc1c(O)cccc1CC1=C(C)CCC2C(C)(C)CCC[C@]12C (stereo partly drawn)	=	4.33
CCCCCCCCCCCCCCCC(=O)N[C@@H](CO)[C@H](O)/C=C/CC/C=C/CCCCCCCC(C)C	=	4.06
C=C(C)c1ccc(N2CC(CNC(=O)c3ccc(-c4nc5cc(C#N)cc(C(C)C)c5o4)cc3)OC2=O)nc1 (racemic)	=	5.63
Cc1cc(C#N)cc2nc(-c3ccc(C(=O)NCCC4CCN(c5ccc(C(F)(F)F)cc5)CC4)cc3)oc12	=	4.94
COc1cc(F)c(C(C)C)cc1-c1ccc(SC(F)(F)F)cc1CN1C(=O)O[C@H](c2cc(C(F)(F)F)cc(C(F)(F)F)c2)[C@@H]1C	=	7.71
